Molecular target: Yer064c (UniProt P40041)
Sequence: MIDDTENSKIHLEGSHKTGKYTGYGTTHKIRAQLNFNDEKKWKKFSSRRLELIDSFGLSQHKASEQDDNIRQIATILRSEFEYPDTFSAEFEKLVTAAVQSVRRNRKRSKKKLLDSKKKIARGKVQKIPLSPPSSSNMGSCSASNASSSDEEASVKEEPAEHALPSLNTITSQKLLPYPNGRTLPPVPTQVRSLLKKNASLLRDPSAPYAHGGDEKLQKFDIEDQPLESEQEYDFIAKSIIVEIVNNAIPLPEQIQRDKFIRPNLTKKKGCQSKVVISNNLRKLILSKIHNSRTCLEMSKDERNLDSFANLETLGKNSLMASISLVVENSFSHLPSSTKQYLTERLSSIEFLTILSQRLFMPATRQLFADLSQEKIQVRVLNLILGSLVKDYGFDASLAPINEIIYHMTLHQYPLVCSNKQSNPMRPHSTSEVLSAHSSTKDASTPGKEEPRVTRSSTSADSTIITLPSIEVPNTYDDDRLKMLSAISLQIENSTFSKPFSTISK
Test: PBM E-score (8-mer binding enrichment) (E-score (-0.5 to 0.5)); higher = stronger / more preferred TF binding
Details: protein concentration: 200 nM; construct: GST-full length
Over roughly 33,000 sequences, “E-score (-0.5 to 0.5)” has its median near -0.036; the highest 2% begin near 0.37. Shown is part of a subset that was picked to be rich in the highest values.
Assign MET to entries whose PBM E-score meets or exceeds -0.02; assign NOT MET to the rest.

- ordered.residues: "AATTAGTC"
  test.system: "Yer064c (UniProt P40041)"
  discrete.label: "MET"
- ordered.residues: "GAACTAAC"
  test.system: "Yer064c (UniProt P40041)"
  discrete.label: "NOT MET"
- ordered.residues: "AAGAGAGG"
  test.system: "Yer064c (UniProt P40041)"
  discrete.label: "NOT MET"
- ordered.residues: "TCCAGCCA"
  test.system: "Yer064c (UniProt P40041)"
  discrete.label: "NOT MET"
- ordered.residues: "CGGGTAAC"
  test.system: "Yer064c (UniProt P40041)"
  discrete.label: "NOT MET"
- ordered.residues: "CATTAGTA"
  test.system: "Yer064c (UniProt P40041)"
  discrete.label: "MET"
- ordered.residues: "CTAGAGGC"
  test.system: "Yer064c (UniProt P40041)"
  discrete.label: "NOT MET"
- ordered.residues: "CATTAGTC"
  test.system: "Yer064c (UniProt P40041)"
  discrete.label: "MET"
- ordered.residues: "CGACTAAC"
  test.system: "Yer064c (UniProt P40041)"
  discrete.label: "MET"
- ordered.residues: "AATACCAA"
  test.system: "Yer064c (UniProt P40041)"
  discrete.label: "MET"
- ordered.residues: "GTACTAAC"
  test.system: "Yer064c (UniProt P40041)"
  discrete.label: "MET"
- ordered.residues: "AACGGTGT"
  test.system: "Yer064c (UniProt P40041)"
  discrete.label: "NOT MET"
- ordered.residues: "CCTAATTA"
  test.system: "Yer064c (UniProt P40041)"
  discrete.label: "NOT MET"
- ordered.residues: "ATTTTGTA"
  test.system: "Yer064c (UniProt P40041)"
  discrete.label: "MET"
- ordered.residues: "ATAGAGTC"
  test.system: "Yer064c (UniProt P40041)"
  discrete.label: "MET"
- ordered.residues: "ACTCCACG"
  test.system: "Yer064c (UniProt P40041)"
  discrete.label: "MET"
- ordered.residues: "GGCAGCAA"
  test.system: "Yer064c (UniProt P40041)"
  discrete.label: "NOT MET"
- ordered.residues: "CAACTAAC"
  test.system: "Yer064c (UniProt P40041)"
  discrete.label: "MET"
- ordered.residues: "AATTAGTG"
  test.system: "Yer064c (UniProt P40041)"
  discrete.label: "MET"
- ordered.residues: "CGACTACC"
  test.system: "Yer064c (UniProt P40041)"
  discrete.label: "MET"

###

Molecular target: Yer064c (UniProt P40041)
Sequence: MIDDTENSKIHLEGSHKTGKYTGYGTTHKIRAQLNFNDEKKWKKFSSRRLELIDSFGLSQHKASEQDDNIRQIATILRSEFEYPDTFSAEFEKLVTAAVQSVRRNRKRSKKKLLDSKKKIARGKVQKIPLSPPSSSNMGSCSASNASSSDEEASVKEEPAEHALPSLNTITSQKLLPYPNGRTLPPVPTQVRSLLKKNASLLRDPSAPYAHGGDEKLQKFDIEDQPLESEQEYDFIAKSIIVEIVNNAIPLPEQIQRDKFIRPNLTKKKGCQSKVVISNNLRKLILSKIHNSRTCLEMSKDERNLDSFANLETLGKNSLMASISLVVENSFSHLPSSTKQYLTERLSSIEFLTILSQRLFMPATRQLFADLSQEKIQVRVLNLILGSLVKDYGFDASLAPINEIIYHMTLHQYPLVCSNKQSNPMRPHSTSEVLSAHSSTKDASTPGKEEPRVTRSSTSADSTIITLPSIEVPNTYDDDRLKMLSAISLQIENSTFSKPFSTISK
Experiment: PBM E-score (8-mer binding enrichment) (E-score (-0.5 to 0.5)); higher = stronger / more preferred TF binding
Settings: protein concentration: 200 nM; construct: GST-full length
The full ranking holds about 33,000 sequences; the median of “E-score (-0.5 to 0.5)” is about -0.036, and the highest 2% start at about 0.37. The entries come from a sample that favours the highest values as a whole.
measurement.kind: PBM E-score

- ordered.residues: "GTCCATAA"
  measurement.kind: "PBM E-score"
  result: -0.161
- ordered.residues: "AATTGACC"
  measurement.kind: "PBM E-score"
  result: -0.0998
- ordered.residues: "TAGAGTAA"
  measurement.kind: "PBM E-score"
  result: 0.0416
- ordered.residues: "AATTGACG"
  measurement.kind: "PBM E-score"
  result: -0.178
- ordered.residues: "AAATGACT"
  measurement.kind: "PBM E-score"
  result: 0.475
- ordered.residues: "TAGAGTGA"
  measurement.kind: "PBM E-score"
  result: 0.171
- ordered.residues: "AAATGATA"
  measurement.kind: "PBM E-score"
  result: 0.104
- ordered.residues: "GAGAGTAA"
  measurement.kind: "PBM E-score"
  result: 0.0863
- ordered.residues: "AAGACTAG"
  measurement.kind: "PBM E-score"
  result: 0.338
- ordered.residues: "AAGAGTTG"
  measurement.kind: "PBM E-score"
  result: 0.0206
- ordered.residues: "ACTGACCC"
  measurement.kind: "PBM E-score"
  result: 0.0295
- ordered.residues: "AAGAGTGG"
  measurement.kind: "PBM E-score"
  result: -0.242
- ordered.residues: "GAGACTAA"
  measurement.kind: "PBM E-score"
  result: 0.413
- ordered.residues: "AAAACTAA"
  measurement.kind: "PBM E-score"
  result: 0.134
- ordered.residues: "CCTGACAC"
  measurement.kind: "PBM E-score"
  result: 0.023
- ordered.residues: "ACGGATGG"
  measurement.kind: "PBM E-score"
  result: 0.0552
- ordered.residues: "ACTGACTC"
  measurement.kind: "PBM E-score"
  result: 0.461
- ordered.residues: "GCTGACAA"
  measurement.kind: "PBM E-score"
  result: 0.00774
- ordered.residues: "CAGAGTCG"
  measurement.kind: "PBM E-score"
  result: 0.324
- ordered.residues: "AAGACTAT"
  measurement.kind: "PBM E-score"
  result: 0.417
- ordered.residues: "ACTTGACA"
  measurement.kind: "PBM E-score"
  result: 0.0454
- ordered.residues: "AAGACTAA"
  measurement.kind: "PBM E-score"
  result: 0.442
- ordered.residues: "TAGACTAA"
  measurement.kind: "PBM E-score"
  result: 0.3
- ordered.residues: "CCTGACGC"
  measurement.kind: "PBM E-score"
  result: -0.133
- ordered.residues: "ACTTGACG"
  measurement.kind: "PBM E-score"
  result: -0.0474
- ordered.residues: "AAGACTTC"
  measurement.kind: "PBM E-score"
  result: 0.241
- ordered.residues: "TACGCAGA"
  measurement.kind: "PBM E-score"
  result: 0.1
- ordered.residues: "ACCTCGGC"
  measurement.kind: "PBM E-score"
  result: -0.153
- ordered.residues: "GATTGGCC"
  measurement.kind: "PBM E-score"
  result: -0.0787
- ordered.residues: "CCTGACAA"
  measurement.kind: "PBM E-score"
  result: -0.124
- ordered.residues: "AACCAGTA"
  measurement.kind: "PBM E-score"
  result: -0.0555
- ordered.residues: "CAGACTAC"
  measurement.kind: "PBM E-score"
  result: 0.215
